Tested on: E. coli ATCC28922
Assay: MIC determination by microplate dilution, E. coli human strain
Type: cell-based, Escherichia coli
Conditions: Escherichia coli, ATCC28922, Gram-negative, Mueller-Hinton medium, 24 h, 37° C.
Recorded measurements of MIC, one per entry
Return type: number; implicit unit µg/mL.

INSERT INTO results (molecule, readout_unit, observed_result) VALUES
  ('COC(=O)CC[C@@H](C)[C@H]1CCC2C3C(C[C@H](O)[C@@]21C)[C@@]1(C)CC[C@H](NCCCNCCCN)C[C@H]1C[C@H]3O (stereo partly drawn) [Compound (5), methyl 3β-norspermidinocholate]', 'µg/mL', 14);

Ask | Read off the recorded MIC for COC(=O)CC[C@@H](C)[C@H]1CCC2C3CCC4C[C@@H](NCCCNCCCN)CC[C@]4(C)C3C[C@H](O)[C@@]21C (stereo partly drawn) [(4), methyl 3β-norspermidinodeoxycholate]
Reply | 3

Ask | Read off the recorded MIC for CC(C)OC(=O)CC[C@@H](C)[C@H]1CCC2C3CCC4C[C@@H](NCCNCCNCCNCCNCCN)CC[C@]4(C)C3C[C@H](O)[C@@]21C (some centres unmarked)
Reply | 32

Ask | Read off the recorded MIC for COC(=O)CC[C@@H](C)[C@H]1CCC2C3CCC4C[C@@H](NCCCN(C)CCCN)CC[C@]4(C)C3CC[C@@]21C (some centres unmarked)
Reply | 26

Ask | Read off the recorded MIC for CC(C)OC(=O)CC[C@@H](C)[C@H]1CCC2C3CCC4C[C@@H](NCCCNCCCN)CC[C@]4(C)C3CC[C@@]21C (stereo partly drawn) [(16), isopropyl 3β-norspermidinolithocholate]
Reply | 14
